Biological target: Torsin-1A-interacting protein 2 (Homo sapiens) (UniProt Q8NFQ8)
Sequence (Q8NFQ8 whole entry, looked up): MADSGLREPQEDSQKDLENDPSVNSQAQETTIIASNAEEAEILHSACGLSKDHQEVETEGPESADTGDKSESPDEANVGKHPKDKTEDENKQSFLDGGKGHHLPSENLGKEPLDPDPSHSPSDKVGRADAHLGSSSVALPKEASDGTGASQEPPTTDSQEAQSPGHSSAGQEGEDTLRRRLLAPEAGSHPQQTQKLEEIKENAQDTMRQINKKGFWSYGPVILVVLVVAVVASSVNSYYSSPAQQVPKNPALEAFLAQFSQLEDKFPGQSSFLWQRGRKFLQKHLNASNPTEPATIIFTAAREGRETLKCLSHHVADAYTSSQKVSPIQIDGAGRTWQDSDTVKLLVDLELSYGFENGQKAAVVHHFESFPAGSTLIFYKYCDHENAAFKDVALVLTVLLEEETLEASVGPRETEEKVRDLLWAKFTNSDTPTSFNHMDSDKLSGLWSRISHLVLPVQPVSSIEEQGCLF
Assay: LULL1 binders on small-molecule microarray, primary screen, cell lysate, human LULL1 lysate, 635/667 nm fluorescence (AID 1092);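 also: probe is lysate of COS7 cells overexpressing human LULL1; score merges per-feature 667 nm fluorescence with signal-to-noise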
Conditions: hLULL1 lysate binding, 635 nm fluorescence, higher = more signal
// composite z-score lookup, one value per entry

# compound, composite z-score
rows = [
    ("CC(C)[Si](OCCCNS(=O)(=O)c1ccc(Br)cc1)(C(C)C)C(C)C", 0.716),
    ("C[C@@H]1CC[C@H]2C(=O)N3CCC[C@H]3C(=O)N2[C@H]1c1ccc(Br)cc1", 0.178),
    ("CC(C)CN1C(=O)[C@@]2(Cc3ccccc31)c1ccccc1C(=O)N(C1CCCCC1)[C@H]2c1ccc(CO)cc1", 2.01),
    ("CC(C)[C@H]1NC(=O)[C@@]23C(=O)N[C@@H](Cc4ccccc4)C2[C@H](C)[C@@]2(C)O[C@H]2C3/C=C/C/C=C\\CNC(=O)[C@H](C)NC1=O (stereo partly drawn)", -0.62),
    ("CC(C)=C1C(=O)C(c2ccccc2)=C2CN3C(=O)N(CCc4ccccc4)C(=O)[C@]3(Cc3ccccc3)[C@H]21", 1.15),
    ("COCCCNC(=O)[C@@]1(c2ccc([N+](=O)[O-])cc2)CC(=O)N(C2CCCCC2)[C@@H]1c1ccc(CO)cc1", 2.04),
    ("C=CCC(OC(C)=O)[C@@H]1[C@@H](N(Cc2cccc3ccccc23)C(=O)Cc2ccc(F)cc2)c2cc(OCCCO)ccc2N1C(=O)Cc1ccc2ccccc2c1 (stereo partly drawn)", 0.594),
    ("O=C1OCC=C[C@H]2OC34C=CCN(Cc5ccccc5)C(=O)[C@H]3N(CCO)C(=O)[C@@H]4[C@@H]12 (stereo partly drawn)", 2.08),
]

====

Assay: E. coli DRC41 culture turbidity changes, primary screen, E. coli filamentation inducer project, strain DRC41, OD650, 48 h (AID 1152);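 also: E. coli MC1000 strain DRC41 lacking acrAB efflux pump and sulA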
Details: E. coli DRC41 (acrAB sulA), higher = more signal, called active from +8 up or from −8 down
Outcome label depends on z-score relative to -0.3: at/above gives 1 (yes), below gives 0 (no).

# compound, assigned.class
measured = [
    ("CC(C)C[C@@H]1NC(=O)[C@H]2C[C@@H](C(=O)NCCCCCC[N+](C)(C)C)[C@@H](c3ccc(O)cc3)N2C1=O", "1 (yes)"),
    ("C=CC(=O)O[C@@H](Cc1ccccc1)[C@H]1C2C=CCCC=C2CN1Cc1cccc(Cl)c1 (some centres undefined)", "1 (yes)"),
    ("NC(=O)NCC#Cc1ccc2c(c1)[C@]1(C(=O)N2)[C@H](C(N)=O)[C@H]2C(=O)O[C@H](c3ccccc3)[C@H](c3ccccc3)N2[C@@H]1c1ccccc1OCCO", "0 (no)"),
    ("CO[C@H]1O[C@H](CO)[C@@H](OC(=O)Nc2ccc3c(c2)OCO3)[C@H](OC(=O)Nc2ccccc2)[C@@H]1OC(=O)Nc1ccccc1", "0 (no)"),
    ("COCCOC(=O)N1C(=O)[C@@]2(c3cc(C#CCNC(N)=O)ccc31)[C@H](C(=O)N1CCCCCCC1)[C@H]1C(=O)O[C@H](c3ccccc3)[C@H](c3ccccc3)N1[C@@H]2c1ccccc1OCCO", "0 (no)"),
    ("O=C1O[C@@H](c2ccccc2)[C@@H](c2ccccc2)N2[C@@H](c3ccccc3OCCO)[C@]3(C(=O)Nc4ccc(C#CC5=CCCCC5)cc43)[C@@H](C(=O)O)[C@H]12", "1 (yes)"),
    ("CO[C@H]1COC(=O)[C@@H](C)COC(=O)[C@H](Cc2ccccc2)NC(=O)CC=C[C@H]1C", "0 (no)"),
    ("O=C1C2C=CC(C(O)Cc3ccccc3)N(Nc3ccc([N+](=O)[O-])cc3)C2C(=O)N1c1ccccc1 (centres undefined)", "0 (no)"),
    ("CC(C)[C@H]1NC(=O)[C@@]23C(=O)N[C@@H](Cc4ccccc4)C2[C@H](C)[C@@]2(C)O[C@H]2C3/C=C/C/C=C\\CNC(=O)[C@H](C)NC1=O (some centres undefined)", "0 (no)"),
    ("C=C(COC)C(=O)CC[C@H](OC(=O)c1ccccc1-c1ccccc1C(=O)O)c1cccc(OCCO)c1", "1 (yes)"),
    ("C[N+](C)(C)CCCC[C@@H]1NC(=O)[C@H]2C[C@@H](C(=O)NCc3ccc(F)cc3)[C@@H](c3cccc(OCCO)c3)N2C1=O", "1 (yes)"),
    ("CC(=O)NCCCC[C@@H]1NC(=O)[C@H]2C[C@@H](C(=O)NCCCCCCN(C)C)[C@@H](c3cccc(OCCO)c3)N2C1=O", "1 (yes)"),
    ("C=C(CCCC)/C(=C/C[C@H](OC(=O)c1ccncc1)c1cccc(OCCO)c1)c1cc(C(=O)OC)ccc1OC", "1 (yes)"),
    ("COCCOC(=O)N1C(=O)[C@@]2(c3cc(C#CCNC(N)=O)ccc31)[C@H](c1ccc(OCCO)cc1)N1[C@H](c3ccccc3)[C@H](c3ccccc3)OC(=O)[C@H]1[C@@H]2C(=O)Nc1nc2ccccc2s1", "1 (yes)"),
]
